# target_desc: T1, Extracellular domain of human PD1 (huPD1-ECD) (human, UniProt Q15116 25-169, biotinylated in the ligand inhibition assay (sites not given))
# T1 construct: Expressed with a hexahistidine tag or as Fc fusion; also called biotinylated PD-1
# protocol_notes: MSD ligand inhibition, competitor coated cynoPDL1-ECD
property_name: percentage ligand not blocked at 10 µg/ml (%)
Write it as a number; the unit % goes unstated.

{"binder": "PD1B175 (antibody, V domains shown, Tested as IgG2sigma; also called PD1H163/PH9L3) VH: QVQLVQSGAEVKKPGSSVKVSCKASGGTFKSYVIHWVRQAPGQGLEWMGGIIPIFGTANYAQKFQGRVTITADESTSTAYMELSSLRSEDTAVYYCARGYVRATGMLDYWGQGTLVTVSS VL: EIVLTQSPATLSLSPGERATLSCRASQSVSSYLAWYQQKPGQAPRLLIYDASNRATGIPARFSGSGSGTDFTLTISSLEPEDFAVYYCQQRSNWPLTFGQGTKVEIK", "unit_annotation": "%", "measurement": 5}

Kindly consider the entry below.
PD1B114 (antibody, human IgG2, kappa, V domains shown, IgG2sigma/kappa; also called PD1H24/PH9L3) VH: QVQLVQSGAEVKKPGSSVKVSCKASGGTFSSYAISWVRQAPGQGLEWMGGIIPIFGTANYAQKFQGRVTITADESTSTAYMELSSLRSEDTAVYYCARPGLAAAYDTGNLDYWGQGTLVTVSS VL: EIVLTQSPATLSLSPGERATLSCRASQSVSSYLAWYQQKPGQAPRLLIYDASNRATGIPARFSGSGSGTDFTLTISSLEPEDFAVYYCQQRSNWPLTFGQGTKVEIKR yielded percentage ligand not blocked at 10 µg/ml of 13
